- Tested on: Staphylococcus aureus S13E
- Format: cell-based
ENDPOINT LABEL: MIC

Would you please look over these solved cases?
CCCCCNC1(C)CC(OC2c3ccc(cc3)Oc3cc4cc(c3OC3OC(CO)C(O)C(O)C3O)Oc3ccc(cc3Cl)C(O)C(NC(=O)C(CC(C)C)NC)C(=O)NC(CC(N)=O)C(=O)NC4C(=O)NC3C(=O)NC2C(=O)NC(C(=O)O)c2cc(O)cc(O)c2-c2cc3ccc2O)OC(C)C1O (stereo not shown) | 2 µg/mL
CNC(CC(C)C)C(=O)NC1C(=O)NC(CC(N)=O)C(=O)NC2C(=O)NC3C(=O)NC(C(=O)NC(C(=O)O)c4cc(O)cc(O)c4-c4cc3ccc4O)C(OC3CC(C)(NCc4ccccc4)C(O)C(C)O3)c3ccc(c(Cl)c3)Oc3cc2cc(c3O)Oc2ccc(cc2Cl)C1O (stereo not shown) | .25 µg/mL
CCCCCN[C@@]1(C)C[C@H](O[C@H]2[C@H](Oc3c4cc5cc3Oc3ccc(cc3Cl)[C@@H](O[C@H]3C[C@](C)(N)[C@@H](O)[C@H](C)O3)[C@@H]3NC(=O)[C@H](NC(=O)[C@@H]5NC(=O)[C@H](CC(N)=O)NC(=O)[C@H](NC(=O)[C@@H](CC(C)C)NC)[C@H](O)c5ccc(c(Cl)c5)O4)c4ccc(O)c(c4)-c4c(O)cc(O)cc4[C@@H](C(=O)O)NC3=O)O[C@H](CO)[C@@H](O)[C@@H]2O)O[C@@H](C)[C@@H]1O | .5 µg/mL

Now look at this entry.
Read off the recorded MIC for CCCCCCC(=O)N[C@@]1(C)C[C@H](O[C@H]2[C@H](Oc3c4cc5cc3Oc3ccc(cc3Cl)[C@@H](O)[C@@H](NC(=O)[C@@H](CC(C)C)NC)C(=O)N[C@@H](CC(N)=O)C(=O)N[C@H]5C(=O)N[C@H]3C(=O)N[C@H](C(=O)N[C@H](C(=O)O)c5cc(O)cc(O)c5-c5cc3ccc5O)[C@H](O[C@H]3C[C@](C)(N)[C@@H](O)[C@H](C)O3)c3ccc(cc3)O4)O[C@H](CO)[C@@H](O)[C@@H]2O)O[C@@H](C)[C@@H]1O
2 µg/mL
